- tested-target: PCSK9 (Homo sapiens (Human))
- assay-text: PCSK9 Alexa FRET Standard assay (displacement of AlexaFluor647 tagged cyclic peptide Reagent A)
- Type: binding
- stated-conditions: PCSK9 Alexa FRET Standard assay, 0.5 nM PCSK9, 20 nM AF cyclic peptide Reagent A; read-out: IC50
Starred links: 1 amine or outer side, 2 acyl side, 3 side chain; linkers in the order of their positions; H or OH if unused. Positions of bridges follow the written chain, without caps; N, C: chain ends. Non-standard residues stand in square brackets, D forms with d. Residues, ends and D or L forms follow the SMILES beside them. ξ: configuration not given here. Ala(imidazol-2-yl) = N[C@@H](Cc1ncc[nH]1)C(=O)O; Trp(5-F) = N[C@@H](Cc1c[nH]c2ccc(F)cc12)C(=O)O; X4 = O=C(CCSCc1cccc(CSCCN[*:1])c1)[*:2]; X40 = FC(F)(F)c1cc(C[*:1])cc(C[*:2])c1; mXylylene = c1cc(C[*:1])cc(C[*:2])c1; X48 = CC(N[*:1])c1ncc(C(=O)[*:2])s1; ξAla(CF3) = NC(CC(F)(F)F)C(=O)O; αMeP = C[C@@]1(C(=O)O)CCCN1; Mpa = O=C(O)CCS
endpoint-label: IC50

>  <molecule>
CC1NC(=O)CCSCc2cccc(c2)CSC[C@@H](C(N)=O)NC(=O)[C@]2(C)CCCN2C(=O)[C@H](Cc2ccc(O)cc2)NC(=O)[C@H](Cc2cnc[nH]2)NC(=O)[C@H](CC(=O)O)NC(=O)[C@H](Cc2c[nH]c3ccc(F)cc23)NC(=O)[C@H](Cc2c[nH]c3ccc(F)cc23)NC(=O)C2=CN=C1S2 (stereo partly drawn) [Compound 434] ([Mpa][X48][Trp(5-F)][Trp(5-F)]DHY[αMeP]C-NH2; linker 1-9 via mXylylene)

>  <endpoint-label>
IC50

>  <val>
21 to 50 µM

$$$$
>  <molecule>
COc1ccc(C[C@@H]2NC(=O)[C@H]([C@@H](C)O)NC(=O)[C@@H]3CCCN3C(=O)[C@H](Cc3c[nH]c4ccc(F)cc34)NC(=O)[C@H](Cc3c[nH]c4ccc(F)cc34)NC(=O)[C@@H](C)NC(=O)[C@H](CCCCN)NC(=O)CCSCc3cc(cc(C(F)(F)F)c3)CSC[C@@H](C(N)=O)NC(=O)[C@]3(C)CCCN3C2=O)cc1 [Compound 073] ([Mpa]K[dA][Trp(5-F)][Trp(5-F)]PTY(Me)[αMeP]C-NH2; linker 1-10 via X40)

>  <endpoint-label>
IC50

>  <val>
21 to 50 µM

$$$$

Now examine the next entry.
Item: COc1ccc(C[C@@H]2NC(=O)[C@H](Cc3ncc[nH]3)NC(=O)[C@H](CC(=O)O)NC(=O)[C@H](Cc3c[nH]c4ccc(F)cc34)NC(=O)[C@H](Cc3c[nH]c4ccc(F)cc34)NC(=O)[C@@H](C)NC(=O)C(CC(F)(F)F)NC(=O)CCSCc3cccc(c3)CSCCNC(=O)[C@]3(C)CCCN3C2=O)cc1 (stereo partly drawn) [Compound 443] (cyclo(D[Ala(imidazol-2-yl)]Y(Me)[αMeP][X4][ξAla(CF3)][dA][Trp(5-F)][Trp(5-F)])) | IC50: 21 to 50 µM

* * *

- tested-target: PCSK9 (Homo sapiens (Human), UniProt Q8NBP7)
- Sequence (Q8NBP7 153-692): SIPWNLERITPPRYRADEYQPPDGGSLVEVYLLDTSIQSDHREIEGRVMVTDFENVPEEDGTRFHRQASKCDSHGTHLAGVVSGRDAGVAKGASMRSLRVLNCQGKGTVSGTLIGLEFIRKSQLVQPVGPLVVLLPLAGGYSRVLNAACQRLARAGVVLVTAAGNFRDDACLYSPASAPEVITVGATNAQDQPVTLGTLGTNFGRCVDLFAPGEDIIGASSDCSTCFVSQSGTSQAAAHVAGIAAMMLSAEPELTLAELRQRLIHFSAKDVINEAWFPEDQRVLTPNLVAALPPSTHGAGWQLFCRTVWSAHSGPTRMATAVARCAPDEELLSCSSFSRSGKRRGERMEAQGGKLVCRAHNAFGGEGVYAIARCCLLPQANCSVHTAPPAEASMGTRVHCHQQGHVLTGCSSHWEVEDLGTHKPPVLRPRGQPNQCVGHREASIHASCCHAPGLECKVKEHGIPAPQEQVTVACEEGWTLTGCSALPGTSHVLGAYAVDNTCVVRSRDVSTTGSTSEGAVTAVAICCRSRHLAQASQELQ
- assay-text: PCSK9 Alexa FRET Standard assay (displacement of AlexaFluor647 tagged cyclic peptide Reagent A)
- Format: binding
- stated-conditions: PCSK9 Alexa FRET Standard assay, 0.5 nM PCSK9, 20 nM AF cyclic peptide Reagent A; read-out: IC50
Starred links: 1 amine or outer side, 2 acyl side, 3 side chain; linkers in the order of their positions; H or OH if unused. Positions of bridges follow the written chain, without caps; N, C: chain ends. Non-standard residues stand in square brackets, D forms with d. Residues, ends and D or L forms follow the SMILES beside them. ξ: configuration not given here. Ala(imidazol-2-yl) = N[C@@H](Cc1ncc[nH]1)C(=O)O; Trp(5-F) = N[C@@H](Cc1c[nH]c2ccc(F)cc12)C(=O)O; X4 = O=C(CCSCc1cccc(CSCCN[*:1])c1)[*:2]; TBMB = c1c(C[*:1])cc(C[*:3])cc1C[*:2]; ξAla(CF3) = NC(CC(F)(F)F)C(=O)O; αMeP = C[C@@]1(C(=O)O)CCCN1; Mpa = O=C(O)CCS
endpoint-label: IC50

Recorded results for 2 compounds are shown here.
>  <compound>
COc1ccc(C[C@@H]2NC(=O)[C@H](Cc3ncc[nH]3)NC(=O)[C@H](CC(=O)O)NC(=O)[C@H](Cc3c[nH]c4ccc(F)cc34)NC(=O)[C@H](Cc3c[nH]c4ccc(F)cc34)NC(=O)[C@@H](C)NC(=O)C(CC(F)(F)F)NC(=O)CCSCc3cccc(c3)CSCCNC(=O)[C@]3(C)CCCN3C2=O)cc1 (stereo partly drawn) [Compound 444] (cyclo(D[Ala(imidazol-2-yl)]Y(Me)[αMeP][X4][ξAla(CF3)][dA][Trp(5-F)][Trp(5-F)]))

>  <IC50>
21 to 50 µM

$$$$
>  <compound>
Cc1cc2cc(c1)CSC[C@@H](C(N)=O)NC(=O)[C@]1(C)CCCN1C(=O)[C@H](Cc1ccc(O)cc1)NC(=O)[C@H](Cc1c[nH]cn1)NC(=O)[C@H](CC(=O)O)NC(=O)[C@H](Cc1c[nH]c3ccc(F)cc13)NC(=O)[C@H](Cc1c[nH]c3ccc(F)cc13)NC(=O)CNC(=O)[C@H](CCCCN)NC(=O)CCSC2 [Compound 357] ([Mpa]KG[Trp(5-F)][Trp(5-F)]DHY[αMeP]C-NH2; linker 1-10 via TBMB)

>  <IC50>
1 to 12.1 µM

$$$$

Now examine the next entry.
Item: CC(=O)N[C@H]1CCCC/C=C/CO[C@H]2C[C@@H](C(N)=O)N(C2)C(=O)[C@H](Cc2ccc(O)cc2)NC(=O)[C@H](Cc2cnc[nH]2)NC(=O)[C@H](CC(=O)O)NC(=O)[C@H](Cc2c[nH]c3ccc(F)cc23)NC(=O)[C@H](Cc2c[nH]c3ccc(F)cc23)NC(=O)CNC(=O)[C@H](CCCCN)NC1=O [Compound 431] | IC50: 0.00011 to 0.1 µM
